Measured PBM binding z-score by item
System: LXRb:RXRa (NR concentration 270 nM, RXRa partner concentration 90 nM)
Test description: PBM binding z-score (relative to random genomic background probes); higher = stronger binding; sequences stand for … in GC…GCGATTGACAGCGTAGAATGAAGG
Measurement type: PBM binding z-score

macromolecule_sequence=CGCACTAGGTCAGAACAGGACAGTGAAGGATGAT measurement_type="PBM binding z-score" experimental_value=0.629
macromolecule_sequence=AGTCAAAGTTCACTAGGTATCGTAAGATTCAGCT measurement_type="PBM binding z-score" experimental_value=2.98
macromolecule_sequence=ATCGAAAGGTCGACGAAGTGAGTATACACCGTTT measurement_type="PBM binding z-score" experimental_value=2.49
macromolecule_sequence=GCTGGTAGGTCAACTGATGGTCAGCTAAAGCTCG measurement_type="PBM binding z-score" experimental_value=2.66
macromolecule_sequence=CGAACTAGGTCATTGACAGGACAGTGATTAGTAA measurement_type="PBM binding z-score" experimental_value=2
macromolecule_sequence=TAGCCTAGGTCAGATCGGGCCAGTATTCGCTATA measurement_type="PBM binding z-score" experimental_value=0.7

====

System: PPARg:RXRa 90nM:30nM, anti-RXR (NR concentration 90 nM, RXRa partner concentration 30 nM)
Test description: PBM binding z-score (relative to random genomic background probes); higher = stronger binding; sequences stand for … in GC…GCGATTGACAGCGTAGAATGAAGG
Group membership follows PBM binding z-score per the scheme bottom end: < 0.6; midrange: ≥ 0.6 and < 3; top end: ≥ 3

macromolecule_sequence=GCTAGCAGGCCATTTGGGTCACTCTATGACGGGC discrete_label="bottom end"
macromolecule_sequence=AATACAGGGTCACTAGGCAAGAGTAGGTACGAAT discrete_label="top end"
macromolecule_sequence=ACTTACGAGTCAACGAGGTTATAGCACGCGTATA discrete_label="bottom end"
macromolecule_sequence=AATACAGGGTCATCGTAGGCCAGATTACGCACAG discrete_label="top end"
macromolecule_sequence=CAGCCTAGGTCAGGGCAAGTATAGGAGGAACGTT discrete_label="bottom end"
macromolecule_sequence=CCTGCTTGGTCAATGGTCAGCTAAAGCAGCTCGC discrete_label="bottom end"
macromolecule_sequence=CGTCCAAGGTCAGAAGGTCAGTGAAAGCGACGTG discrete_label="top end"
macromolecule_sequence=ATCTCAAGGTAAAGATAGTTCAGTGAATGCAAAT discrete_label="bottom end"
macromolecule_sequence=AGAACGAGGTTACCAAAGATCAGGGAAACGCTTG discrete_label=midrange
macromolecule_sequence=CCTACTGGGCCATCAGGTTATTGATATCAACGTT discrete_label=midrange
macromolecule_sequence=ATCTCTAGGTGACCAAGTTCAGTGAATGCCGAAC discrete_label=midrange
macromolecule_sequence=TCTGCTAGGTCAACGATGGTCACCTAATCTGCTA discrete_label=midrange
macromolecule_sequence=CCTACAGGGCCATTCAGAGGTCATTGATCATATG discrete_label=midrange
macromolecule_sequence=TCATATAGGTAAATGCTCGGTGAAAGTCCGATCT discrete_label="top end"
macromolecule_sequence=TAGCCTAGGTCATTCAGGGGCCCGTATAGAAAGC discrete_label=midrange
macromolecule_sequence=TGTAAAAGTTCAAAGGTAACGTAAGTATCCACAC discrete_label="top end"
macromolecule_sequence=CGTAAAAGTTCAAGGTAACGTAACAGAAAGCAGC discrete_label=midrange
macromolecule_sequence=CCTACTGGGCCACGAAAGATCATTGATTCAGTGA discrete_label="bottom end"
macromolecule_sequence=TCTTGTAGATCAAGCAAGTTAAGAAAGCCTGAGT discrete_label=midrange
macromolecule_sequence=ATCTCTAGGTAAGACTCAGTTCAGTAAAGAACGC discrete_label="bottom end"
macromolecule_sequence=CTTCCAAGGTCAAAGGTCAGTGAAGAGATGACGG discrete_label="top end"
macromolecule_sequence=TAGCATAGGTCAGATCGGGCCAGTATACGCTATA discrete_label=midrange
macromolecule_sequence=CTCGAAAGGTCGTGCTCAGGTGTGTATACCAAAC discrete_label=midrange
macromolecule_sequence=TTACCACGGTGAAAGGTCGTTGATGCACGCCTTG discrete_label="top end"
macromolecule_sequence=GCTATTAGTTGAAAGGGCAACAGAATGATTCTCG discrete_label="top end"
macromolecule_sequence=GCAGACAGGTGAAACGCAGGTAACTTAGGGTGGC discrete_label="bottom end"
macromolecule_sequence=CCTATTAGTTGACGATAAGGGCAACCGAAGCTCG discrete_label="bottom end"
macromolecule_sequence=CTCGGAAGGTCGGTTGAGGTGAGTATACGGATAA discrete_label="bottom end"
macromolecule_sequence=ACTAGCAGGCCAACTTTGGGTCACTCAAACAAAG discrete_label="bottom end"
macromolecule_sequence=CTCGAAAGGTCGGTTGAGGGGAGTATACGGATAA discrete_label="bottom end"
macromolecule_sequence=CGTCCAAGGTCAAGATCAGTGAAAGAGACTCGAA discrete_label="top end"
macromolecule_sequence=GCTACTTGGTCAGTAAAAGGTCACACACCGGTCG discrete_label="top end"
macromolecule_sequence=CCTGCTAGGTCAATGGTCATCTAAAGCAGCTCGC discrete_label="top end"
macromolecule_sequence=ATCTCTAGGTAAACGTTCAGTGAATCCCGAGGAT discrete_label=midrange
macromolecule_sequence=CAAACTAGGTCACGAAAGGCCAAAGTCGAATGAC discrete_label="top end"
macromolecule_sequence=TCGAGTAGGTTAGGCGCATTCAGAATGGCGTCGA discrete_label="bottom end"
macromolecule_sequence=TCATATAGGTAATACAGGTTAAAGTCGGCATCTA discrete_label="top end"
macromolecule_sequence=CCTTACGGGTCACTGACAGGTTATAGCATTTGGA discrete_label="top end"
macromolecule_sequence=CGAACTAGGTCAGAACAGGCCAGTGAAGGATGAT discrete_label="top end"
macromolecule_sequence=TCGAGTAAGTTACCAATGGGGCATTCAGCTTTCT discrete_label=midrange
macromolecule_sequence=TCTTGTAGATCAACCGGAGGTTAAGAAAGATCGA discrete_label=midrange
macromolecule_sequence=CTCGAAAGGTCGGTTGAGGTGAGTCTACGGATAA discrete_label=midrange
macromolecule_sequence=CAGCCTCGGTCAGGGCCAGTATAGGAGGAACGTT discrete_label="bottom end"
macromolecule_sequence=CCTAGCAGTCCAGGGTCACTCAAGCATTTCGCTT discrete_label="bottom end"
macromolecule_sequence=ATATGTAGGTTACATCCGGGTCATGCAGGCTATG discrete_label="top end"
macromolecule_sequence=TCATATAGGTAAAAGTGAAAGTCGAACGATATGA discrete_label="top end"
macromolecule_sequence=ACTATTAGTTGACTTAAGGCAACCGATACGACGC discrete_label="bottom end"
macromolecule_sequence=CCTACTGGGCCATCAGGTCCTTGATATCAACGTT discrete_label="bottom end"
macromolecule_sequence=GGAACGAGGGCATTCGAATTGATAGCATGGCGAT discrete_label=midrange
macromolecule_sequence=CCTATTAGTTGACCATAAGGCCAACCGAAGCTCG discrete_label="bottom end"
macromolecule_sequence=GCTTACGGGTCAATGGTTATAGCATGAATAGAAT discrete_label="top end"

====

Test system: PPARg:RXRa (NR concentration 180 nM, RXRa partner concentration 90 nM)
Test description: PBM binding z-score (relative to random genomic background probes); higher = stronger binding; sequences stand for … in GC…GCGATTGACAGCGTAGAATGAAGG
Measurement type: PBM binding z-score

macromolecule_sequence=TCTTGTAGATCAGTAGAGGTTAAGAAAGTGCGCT measurement_type="PBM binding z-score" experimental_value=-0.271
macromolecule_sequence=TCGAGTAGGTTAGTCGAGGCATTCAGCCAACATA measurement_type="PBM binding z-score" experimental_value=-0.115
macromolecule_sequence=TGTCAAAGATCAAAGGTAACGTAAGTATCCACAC measurement_type="PBM binding z-score" experimental_value=4.17
macromolecule_sequence=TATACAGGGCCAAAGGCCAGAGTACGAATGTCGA measurement_type="PBM binding z-score" experimental_value=4.12
macromolecule_sequence=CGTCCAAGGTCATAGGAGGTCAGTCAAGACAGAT measurement_type="PBM binding z-score" experimental_value=5.47
macromolecule_sequence=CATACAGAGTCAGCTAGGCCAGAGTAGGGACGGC measurement_type="PBM binding z-score" experimental_value=0.472

The measured values listed here are drawn from the supplement of paper PMC6555819.
